- protocol_description: Pharmacokinetics in healthy volunteers
- condition_label: human, in vivo
metric: Tmax

Query: Return reported Tmax; argument: Cn1cc(S(=O)(=O)[C@@](C)(F)C2CCN(C(=O)Nc3ccon3)CC2)c(C(F)F)n1 [Compound I]
Response: 4 to 6 h

* * *

- protocol_description: Pharmacokinetics in patients with stable HFrEF
- Type: in vivo
- condition_label: human, in vivo, oral; patients that received Compound I as part of Cohort 1 (single doses)
metric: half-life

Query: What measured half-life goes with Cn1cc(S(=O)(=O)[C@@](C)(F)C2CCN(C(=O)Nc3ccon3)CC2)c(C(F)F)n1 [Compound I] ?
Response: 20 to 25 h
